These measurements were taken from PubChem BioAssay AID493034.

Assayed Target: Platelet-activating factor acetylhydrolase IB subunit alpha2 (Homo sapiens) (UniProt P68402)
Sequence (P68402 whole entry, looked up): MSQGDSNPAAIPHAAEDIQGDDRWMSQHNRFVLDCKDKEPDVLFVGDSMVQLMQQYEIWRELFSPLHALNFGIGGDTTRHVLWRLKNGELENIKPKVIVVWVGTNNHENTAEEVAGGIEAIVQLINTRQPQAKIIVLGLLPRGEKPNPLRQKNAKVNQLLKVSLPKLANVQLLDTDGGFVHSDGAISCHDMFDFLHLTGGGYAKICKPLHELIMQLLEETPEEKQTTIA
Assay Explanation: inhibition of human PAFAH1B2 catalytic subunit – biochemical, fluorescence polarization, FP-rhodamine probe, triplicate, confirmation (AID 493034);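 also: 0% = enzyme with DMSO and 100% = wells lacking PAFAH1B2 protein; inhibitors lower polarization by leaving the probe unbound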
Condition Parameters: recombinant PAFAH1B2, FP-rhodamine probe fluorescence polarization; at 3.39 µM
The campaign covered roughly 2,400 compounds. About 2,200 (92%) were called active.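 The calls were made as follows: active = mean inhibition over triplicate runs exceeds the cutoff derived for the earlier primary screen (cut at about 25% in these data); inactive = the rest.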 The set was probably picked from earlier hits. Some of the results follow.
Classes used: active, inactive

In [3]: df
Out[3]:
                                    compound  qualitative_label
 0  CCc1ccc(C2CC(c3ccc(Cl)cc3)n3nc(N)nc3N2)cc1 (centres undefined)             active
 1  O=C1N[C@@H](Cc2ccccc2)COC(=O)[C@@H](Cc2ccc(F)cc2)C/C=C\C[C@@H]1CC(=O)N(CCO)Cc1ccccc1             active
 2  O=S(=O)(Nc1ncccn1)c1ccc(NC(=S)NCCc2ccc(Cl)cc2)cc1             active
 3  CCN(C(=O)COC(=O)c1cc(NS(=O)(=O)c2ccc(Cl)c([N+](=O)[O-])c2)ccc1O)C1CCCCC1             active
 4         N#Cc1c(N)[nH]c2ccc(Sc3ccccc3)cc12             active
 5  Cc1c(C(=O)N2CCOCC2)cc(C(C)(C)C)n1-c1ccccc1             active
 6  CCOC(=O)c1sc(N(Cc2ccccc2)C(=O)COC(=O)c2ccccc2O)nc1C           inactive
 7  CC(C)(C)CC(C)(C)c1ccc(O)c(CN2CCN(CCC#N)CC2)c1             active
 8  COC(=O)c1cc(NS(=O)(=O)c2ccc(N3CCCCCC3)c([N+](=O)[O-])c2)cc(C(=O)OC)c1           inactive
 9  Cc1ccc(CSc2nnc(NC(=O)C3COc4ccccc4O3)s2)cc1 (centres undefined)           inactive
10  C[C@H]1CCC[C@]2(C)C[C@H]3OC(=O)C(CN4CCCCCC4)[C@H]3C=C12 (some centres undefined)           inactive
11  O=C(O)CCn1cc(/C=C\C(=O)c2ccc(Cl)cc2)c(-c2cccc(Br)c2)n1             active
12       NC(=S)N=Nc1c(O)n(CCCl)c2ccc(Br)cc12             active
13  Cc1ccccc1C(=O)c1cccn1CC(=O)NCc1ccc(Cl)cc1           inactive

====

Assayed Target: Platelet-activating factor acetylhydrolase IB subunit alpha2 (Homo sapiens) (UniProt P68402)
Assay Explanation: inhibition of human PAFAH1B2 catalytic subunit – biochemical, fluorescence polarization, FP-rhodamine probe, triplicate, confirmation (AID 493034);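 also: 0% = enzyme with DMSO and 100% = wells lacking PAFAH1B2 protein; inhibitors lower polarization by leaving the probe unbound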
Condition Parameters: recombinant PAFAH1B2, FP-rhodamine probe fluorescence polarization; at 3.39 µM; hits give high values
Hit rate of the full screen: of about 2,400 compounds, about 2,200 (92%) were called active. So high a share suggests a set chosen from earlier hits. This is one part of the list.
Catalogue of compounds with associated inhibition
Property: inhibition (%)

>>> df
                                   compound    property  units  recorded_measurement
0        O=S(=O)(Oc1ccccc1N1CCCCC1)c1ccccc1  inhibition      %                  14.5
1  Cc1ccc(S(=O)(=O)N2CCC(=O)N(C(COC(=O)Nc3ccccc3)Cc3ccccc3)CC2)cc1 (stereo not drawn)  inhibition      %                  32.5
2  O=C(O)c1ccc(N=Nc2c(O)[nH]c3ccc(Br)cc23)cc1  inhibition      %                  25.6
3  Cc1ccc(-n2cccc2/C=C2\C(=N)N3N=C(c4ccco4)SC3=NC2=O)cc1  inhibition      %                  38.1
4  NC(=O)c1c(NC(=O)CN2CCN(S(=O)(=O)c3ccccc3)CC2)sc2c1CCC2  inhibition      %                  1.51
5  CS(=O)(=O)C1=NSC2=NC(=O)/C(=C\c3cccn3-c3ccc(Cl)cc3)C(=N)N21  inhibition      %                  55.9
6             S=c1[nH]cnc2sc(-c3ccccc3)cc12  inhibition      %                  37.9
7  CC(C)(C)[C@H]1COC(=O)[C@@H](Cc2ccc(F)cc2)C/C=C\C[C@@H](CC(=O)N[C@@H](CO)Cc2ccccc2)C(=O)N1  inhibition      %                  32.7
